From: the supplement of paper PMC6555819

system: RARb homodimer (NR concentration 270 nM); test: PBM binding z-score (relative to random genomic background probes); higher = stronger binding; sequences stand for … in GC…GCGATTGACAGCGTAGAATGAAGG
For each of the sequences below, state its PBM binding z-score.
# answer = number (no unit)

INPUT: Determine its reported PBM binding z-score: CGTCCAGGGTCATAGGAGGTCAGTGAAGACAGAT
OUTPUT: 4.98

INPUT: Determine its reported PBM binding z-score: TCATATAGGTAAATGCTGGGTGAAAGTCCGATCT
OUTPUT: 0.617

INPUT: Determine its reported PBM binding z-score: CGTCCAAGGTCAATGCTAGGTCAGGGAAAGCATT
OUTPUT: 4.99

INPUT: Determine its reported PBM binding z-score: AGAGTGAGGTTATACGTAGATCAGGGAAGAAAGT
OUTPUT: 1.53

INPUT: Determine its reported PBM binding z-score: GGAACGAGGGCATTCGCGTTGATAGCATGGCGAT
OUTPUT: 0.582

INPUT: Determine its reported PBM binding z-score: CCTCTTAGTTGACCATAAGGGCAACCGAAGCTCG
OUTPUT: 2.25

INPUT: Determine its reported PBM binding z-score: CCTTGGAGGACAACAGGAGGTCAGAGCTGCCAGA
OUTPUT: 3.58

INPUT: Determine its reported PBM binding z-score: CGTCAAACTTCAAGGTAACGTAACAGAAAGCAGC
OUTPUT: 0.274

INPUT: Determine its reported PBM binding z-score: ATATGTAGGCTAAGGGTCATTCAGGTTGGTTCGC
OUTPUT: 3.85

INPUT: Determine its reported PBM binding z-score: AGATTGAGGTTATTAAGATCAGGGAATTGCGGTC
OUTPUT: 1.06

INPUT: Determine its reported PBM binding z-score: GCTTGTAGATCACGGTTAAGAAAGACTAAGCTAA
OUTPUT: -0.369

INPUT: Determine its reported PBM binding z-score: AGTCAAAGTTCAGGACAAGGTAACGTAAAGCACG
OUTPUT: 3.29

INPUT: Determine its reported PBM binding z-score: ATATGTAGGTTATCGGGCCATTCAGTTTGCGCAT
OUTPUT: 1.07

INPUT: Determine its reported PBM binding z-score: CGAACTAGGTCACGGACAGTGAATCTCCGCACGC
OUTPUT: 3.36

INPUT: Determine its reported PBM binding z-score: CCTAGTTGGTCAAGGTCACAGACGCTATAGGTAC
OUTPUT: 4.33

INPUT: Determine its reported PBM binding z-score: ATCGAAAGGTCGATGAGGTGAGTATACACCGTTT
OUTPUT: 2.52

INPUT: Determine its reported PBM binding z-score: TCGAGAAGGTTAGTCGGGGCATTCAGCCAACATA
OUTPUT: 0.99

INPUT: Determine its reported PBM binding z-score: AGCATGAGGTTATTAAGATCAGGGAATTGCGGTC
OUTPUT: 0.785

INPUT: Determine its reported PBM binding z-score: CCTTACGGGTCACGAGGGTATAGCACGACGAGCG
OUTPUT: 3.35

INPUT: Determine its reported PBM binding z-score: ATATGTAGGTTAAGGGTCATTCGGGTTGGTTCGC
OUTPUT: 3.7

INPUT: Determine its reported PBM binding z-score: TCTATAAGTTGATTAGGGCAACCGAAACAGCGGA
OUTPUT: 0.772

INPUT: Determine its reported PBM binding z-score: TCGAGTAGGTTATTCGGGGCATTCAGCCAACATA
OUTPUT: 0.766

INPUT: Determine its reported PBM binding z-score: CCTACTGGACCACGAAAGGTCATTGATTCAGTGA
OUTPUT: 4.5

INPUT: Determine its reported PBM binding z-score: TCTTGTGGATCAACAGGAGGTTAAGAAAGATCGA
OUTPUT: 0.619

INPUT: Determine its reported PBM binding z-score: AGAATGAGGTTAAGGTCAGGGAAACAGAATACAT
OUTPUT: 4.1

INPUT: Determine its reported PBM binding z-score: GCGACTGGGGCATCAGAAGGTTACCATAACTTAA
OUTPUT: 1.73
